Values were extracted from ChEMBL document CHEMBL3860033.

assay: Displacement of [3H]-colchicine from porcine tubulin; parameters: species or system Sus scrofa
measure: IC50 (µM)
The response must be a number in µM with no trailing unit.

According to the records, this molecule COc1ccc(/C=C2\Oc3c(cc(OC)c(OC)c3OC)C2=O)cc1O displays IC50 of 60

###

test: Cytotoxicity against human HCT116 cells assessed as decrease in cell viability after 72 hrs by MTT assay; assay type: functional, cell-based; details: HCT-116, 72 h
measure: IC50

CCOc1cc2c(cc1C(=O)/C=C/c1ccc(OC)c(O)c1)OCS2 has a reported IC50 of 1 to 9 nM
